Kindly supply the reported PBM binding z-score values for the records listed here.
Test system: PPARg:RXRa IVT, anti-PPARg (NR concentration 270 nM, RXRa partner concentration 90 nM)
Assay: PBM binding z-score (relative to random genomic background probes); higher = stronger binding; sequences stand for … in GC…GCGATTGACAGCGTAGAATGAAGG
Enter a number only.

Tested on PPARg:RXRa IVT, anti-PPARg (NR concentration 270 nM, RXRa partner concentration 90 nM), the item CCTACTGGGCCATTTAGAGGTCATTGATCATATG showed PBM binding z-score equal to 4.32

Tested on PPARg:RXRa IVT, anti-PPARg (NR concentration 270 nM, RXRa partner concentration 90 nM), the item AGAATGAGGTTATACGTAGAACAGGGAAGAAAGT showed PBM binding z-score equal to 1.9

Tested on PPARg:RXRa IVT, anti-PPARg (NR concentration 270 nM, RXRa partner concentration 90 nM), the item GCGACTGGGGCATCAGCAGGTTACCAGAACTTAA showed PBM binding z-score equal to 3.19

Tested on PPARg:RXRa IVT, anti-PPARg (NR concentration 270 nM, RXRa partner concentration 90 nM), the item TAGCCTAGGTCATGGGCCAATATACCACGCGAAC showed PBM binding z-score equal to 3.16

Tested on PPARg:RXRa IVT, anti-PPARg (NR concentration 270 nM, RXRa partner concentration 90 nM), the item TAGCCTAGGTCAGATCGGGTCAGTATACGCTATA showed PBM binding z-score equal to 2.06

Tested on PPARg:RXRa IVT, anti-PPARg (NR concentration 270 nM, RXRa partner concentration 90 nM), the item ACAGACAGGTGATGAAGGTAACTCAGGCTATCAT showed PBM binding z-score equal to 0.692

====

Kindly supply the reported PBM binding z-score values for the records listed here.
Tested on: RARg homodimer (NR concentration 270 nM)
Test: PBM binding z-score (relative to random genomic background probes); higher = stronger binding; sequences stand for … in GC…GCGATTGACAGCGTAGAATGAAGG
Enter a number only.

Kindly note the recorded PBM binding z-score for TCTAGCAGGCCAGAGGGTCACTCTAGAGGTACGG , which is 1.97

Kindly note the recorded PBM binding z-score for CCGTCTGGGGCAAAGGTTACCATACTCAGTACGA , which is 1.87

Kindly note the recorded PBM binding z-score for AGAATGAGGTTACCAAAGATCAGGGAAACGCTTG , which is 1.68

Kindly note the recorded PBM binding z-score for TGTTGTAGATCAATAGAGGTTAAGAAAGTGCGCT , which is 0.973

Kindly note the recorded PBM binding z-score for CCTCGGAGGACAACAGGAGGTCAGACCTGCCAGA , which is 3.43

Kindly note the recorded PBM binding z-score for CGGCCTAGGTCAGGGCCAGTATAGGAGGAACGTT , which is 3.41

Kindly note the recorded PBM binding z-score for CAAACTAGGTCACGAAAAGTCAAAGTCGAATGAC , which is 5.38

Kindly note the recorded PBM binding z-score for CTCGAAAGGTCTTGCTCAGGTGAGTATACCAAAC , which is 1.33

Kindly note the recorded PBM binding z-score for CGTCCAAGGTCGATGCTAGGTCAGTGAAAGCATT , which is 2.78

Kindly note the recorded PBM binding z-score for TCATATAGGTAAACAGATGAAAGTCCGTAAGTTA , which is 0.431

Kindly note the recorded PBM binding z-score for AGAATAAGGTTATACGTAGATCAGGGAAGAAAGT , which is 1.25

Kindly note the recorded PBM binding z-score for CCTTACGGGTCACTGATAGGTTATAGCATTTGGA , which is 4.89

====

Tested on: PPARa:RXRa (NR concentration 270 nM, RXRa partner concentration 90 nM)
Experiment: PBM binding z-score (relative to random genomic background probes); higher = stronger binding; sequences stand for … in GC…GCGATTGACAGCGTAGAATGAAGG
Kindly supply the reported PBM binding z-score values for the records listed here.
Enter a number only.

Tested on PPARa:RXRa (NR concentration 270 nM, RXRa partner concentration 90 nM), the item GAATATAGGTAATACAAGGTGAAAGTCCGATTGT showed PBM binding z-score equal to 2.77

Tested on PPARa:RXRa (NR concentration 270 nM, RXRa partner concentration 90 nM), the item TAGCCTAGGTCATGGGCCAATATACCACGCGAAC showed PBM binding z-score equal to 4.3

Tested on PPARa:RXRa (NR concentration 270 nM, RXRa partner concentration 90 nM), the item CCTTACGGGTCACGAGGATATAGCACGACGAGCG showed PBM binding z-score equal to 5.81

Tested on PPARa:RXRa (NR concentration 270 nM, RXRa partner concentration 90 nM), the item AGTATGAGGTTATACGTAGATCAGGGAAGAAAGT showed PBM binding z-score equal to 2.46

Tested on PPARa:RXRa (NR concentration 270 nM, RXRa partner concentration 90 nM), the item ATATGTAGGTTAAGGGTCATTGAGGTTGGTTCGC showed PBM binding z-score equal to 6.56

Tested on PPARa:RXRa (NR concentration 270 nM, RXRa partner concentration 90 nM), the item ATACCAAGCTGATCGTGAGGTCGTTGATACTAAC showed PBM binding z-score equal to 0.693

Tested on PPARa:RXRa (NR concentration 270 nM, RXRa partner concentration 90 nM), the item CCAGACAGGTGAGAAGCTAACTCAGCCTCGATTA showed PBM binding z-score equal to 0.155

Tested on PPARa:RXRa (NR concentration 270 nM, RXRa partner concentration 90 nM), the item CGTCCAAGGTCAGAGAGTTCAGTGAATGCCGAGT showed PBM binding z-score equal to 3.89

Tested on PPARa:RXRa (NR concentration 270 nM, RXRa partner concentration 90 nM), the item TCCTATAGGTAAATGCTAGGTGAAAGTCCGATCT showed PBM binding z-score equal to 1.16

Tested on PPARa:RXRa (NR concentration 270 nM, RXRa partner concentration 90 nM), the item CCGAGTAGGTTACGGGGCATTCAGGCAACGGTGA showed PBM binding z-score equal to 2.14

Tested on PPARa:RXRa (NR concentration 270 nM, RXRa partner concentration 90 nM), the item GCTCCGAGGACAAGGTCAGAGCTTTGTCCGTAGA showed PBM binding z-score equal to 2.23

Tested on PPARa:RXRa (NR concentration 270 nM, RXRa partner concentration 90 nM), the item ATATGTAGGTTACAGCCGGGTCATTCAGGCTATG showed PBM binding z-score equal to 4.51

====

Kindly supply the reported PBM binding z-score values for the records listed here.
Tested on: PPARg:RXRa 90nM:30nM, anti-RXR (NR concentration 90 nM, RXRa partner concentration 30 nM)
Assay: PBM binding z-score (relative to random genomic background probes); higher = stronger binding; sequences stand for … in GC…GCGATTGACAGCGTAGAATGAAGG

Kindly note the recorded PBM binding z-score for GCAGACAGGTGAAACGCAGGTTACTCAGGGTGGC , which is -0.266

Kindly note the recorded PBM binding z-score for GCTGCTAGGTCAACTGTTGGTCAGCTAAAGCTCG , which is 2.23

Kindly note the recorded PBM binding z-score for GCTTACGGGTCAAAGGCTATAGCATGAATAGAAT , which is 6.55

Kindly note the recorded PBM binding z-score for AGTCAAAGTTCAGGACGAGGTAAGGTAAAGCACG , which is 4.27

Kindly note the recorded PBM binding z-score for ACTAGCAGGCCAAGGGGCACTCAAGATTAGTCCG , which is 4.64

Kindly note the recorded PBM binding z-score for TCTTGTACATCAACAGGAGGTTAAGAAAGATCGA , which is 1.9

Kindly note the recorded PBM binding z-score for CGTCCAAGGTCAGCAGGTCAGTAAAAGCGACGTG , which is 2.87

Kindly note the recorded PBM binding z-score for GCTAGTTAGTCAGTAAAAGGTCACACACCGGTCG , which is 5.04

Kindly note the recorded PBM binding z-score for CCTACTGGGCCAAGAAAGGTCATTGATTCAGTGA , which is 2.35

Kindly note the recorded PBM binding z-score for CCTAACGGGTCAAGGTTATAGCACGGGTGGTACG , which is 2.39

Kindly note the recorded PBM binding z-score for TCTGCCAGGTCAGTTGGTCAGCTAACGAGCTGCC , which is 0.918

Kindly note the recorded PBM binding z-score for AATACAGTGTCACTAGGCCAGAGTAGGTACGAAT , which is 0.705

====

Tested on: LXRa homodimer (NR concentration 270 nM)
Experiment: PBM binding z-score (relative to random genomic background probes); higher = stronger binding; sequences stand for … in GC…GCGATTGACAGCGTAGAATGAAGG
Think of -0.4 as a floor: if PBM binding z-score stands on it or above, it is y; beneath it, n.

Hi team, for CCTACTGGGCCAAAAAGGTCATGGATGCCGATAA , is the recorded PBM binding z-score at or above -0.4?
y

Hi team, for CGAACGAGGGCATGATTTGATAGCAAATGCCGAT , is the recorded PBM binding z-score at or above -0.4?
y

Hi team, for CGTCCAAGGTCAATGCTAGGTCAGTGACAGCATT , is the recorded PBM binding z-score at or above -0.4?
y

Hi team, for AGAACGAGGCCACGCTGAGTTGATAGCAGAGTAG , is the recorded PBM binding z-score at or above -0.4?
n

Hi team, for ATCTCTAGGTAACCAAGTTGAGTGAATGCCGAAC , is the recorded PBM binding z-score at or above -0.4?
y

Hi team, for ATCTCCAGGTAACCAAGTTCAGTGAATGCCGAAC , is the recorded PBM binding z-score at or above -0.4?
y

Hi team, for GTTAGCAGGCCATTTGGGTCACTCAATGACGGGC , is the recorded PBM binding z-score at or above -0.4?
n

Hi team, for GGAACGAGGGCAAGTTGAGAGCAGAGTTTGATGG , is the recorded PBM binding z-score at or above -0.4?
y

Hi team, for GATACAGGGTCAGCTGGAGGCCAGAGTATGGAAA , is the recorded PBM binding z-score at or above -0.4?
n

Hi team, for TCTTGTAGATCAACAGGAGGCTAAGAAAGATCGA , is the recorded PBM binding z-score at or above -0.4?
n

Hi team, for TCTAGTTGGTCACGGAGCTCACACACGACGGGTA , is the recorded PBM binding z-score at or above -0.4?
n

Hi team, for CAAACTAGGTCACCGGAACGTCAAAGTCCGCATG , is the recorded PBM binding z-score at or above -0.4?
y

From: the supplement of paper PMC6555819
